Assay: qHTS for inhibitors of Vif-A3G interactions: Cherry picks; note: nearly all actives have a fitted effect of over 80% in size
Conditions: HeLa A3G-eYFP + Vif, 24 h; eYFP fluorescence increase; series mostly up to 36.9 µM
Description: The recent discovery and characterization of host restriction factors, which provide a potent defense to invading retroviruses, has provided new targets for antiviral drug development. […] In the presence of an inhibitor, it is expected that Vif will be unable to degrade A3G-eYFP and/or A3F-eYFP, resulting in an increase in yellow fluorescence. […]
The whole screen tested about 2,100 compounds, of which about 650 (31%) were called active. Not shown: some 16% with an inconclusive outcome. Calls come from the whole dose curve; as a rule, active = well fitted inhibition curve with a large enough effect; inconclusive = small, poorly fitted or top-dose-only effect; inactive = flat fitted curve, though single readings scatter. The list shows a part of the results.
Answer with one of the outcomes active, inactive

Please review the following examples before continuing.
1. CCOC(=O)N1CCc2c(sc3c2C(=O)NC(c2ccc(N(C)C)cc2)N3)C1 (stereo unspecified); active
2. O=Cc1s/c(=N\S(=O)(=O)c2ccccc2)n(CCCCl)c1Cl; inactive
3. Cc1ccc(S(=O)c2ccc([N+](=O)[O-])c3nonc23)cc1 (stereo unspecified); active
4. C[C@]1(O)CC(=O)C=C[C@H]1Nc1ccccc1; inactive
5. S=C(NC1CCCCC1)N(CCc1ccccc1)CCc1ccccc1; inactive

Moving on to the next compound.
## Task Answer briefly: the call reported for "COc1cccc(Cn2c3ccc(NC(=O)CCc4ccc(F)cc4)cc3c(=O)n2C)c1" in this assay.
## Result inactive

* * *

Assay: qHTS for inhibitors of Vif-A3G interactions: Cherry picks; note: nearly all actives have a fitted effect of over 80% in size
Conditions: HeLa A3G-eYFP + Vif, 24 h; eYFP fluorescence increase; series mostly up to 36.9 µM
About 650 (31%) of roughly 2,100 compounds were called active. Inconclusive results (about 16%) are left out. Calls come from the whole dose curve; as a rule, active = well fitted inhibition curve with a large enough effect; inconclusive = small, poorly fitted or top-dose-only effect; inactive = flat fitted curve, though single readings scatter. This is one part of the list.
Entry note: the call must match one of active, inactive

Answered examples (3):
1. COc1ccc(NC(=O)/C(C#N)=C\C=C\c2ccco2)cc1; inactive
2. Cc1cc(NC(=O)CSc2nc3c(C)cccc3cc2C#N)no1; active
3. Cc1nonc1NC(=O)CSc1nc2c(C)cccc2cc1C#N; active

## Task Test call for this molecule, please: "CN1/C(=C\C=C(/C#N)C(=O)Nc2ccc(Cl)cc2)C(C)(C)c2ccccc21"
## Result active

## Task Moving on to "Cc1ccccc1NC(=O)CSc1nc2cc3c(cc2cc1C)CCC3"
## Result inactive

## Task What about this molecule? "O=C(NC(=S)N1CCN(C2CCCCC2)CC1)c1ccccc1"
## Result inactive

* * *

Experiment: qHTS for inhibitors of Vif-A3G interactions: Cherry picks; note: nearly all actives have a fitted effect of over 80% in size
Conditions: HeLa A3G-eYFP + Vif (tagged APOBEC3G with the HIV-1 protein that degrades it), 24 h; eYFP fluorescence increase; series mostly up to 36.9 µM
Out of some 2,100 compounds screened, about 650 (31%) were called active. Roughly 16% stayed inconclusive and do not appear here. Calls come from the whole dose curve; as a rule, active = well fitted inhibition curve with a large enough effect; inconclusive = small, poorly fitted or top-dose-only effect; inactive = flat fitted curve, though single readings scatter. This is one part of the list.
Select the correct class. Options are active, inactive and nothing else.

1. CCCN1C(=O)/C(=C/C=C2\N(CC)c3ccccc3C2(C)C)SC1=S; active
2. CCn1cc(/C=C/c2cc[n+](C)cc2)c2ccccc21; active
3. Cc1c(C(=O)C(=O)N2CC=C(c3ccccc3)CC2)c2ccccc2n1C; inactive
4. COc1ccc(S(=O)(=O)N2CCCOC2CNC(=O)C(=O)NCCc2ccco2)cc1C (centres undefined); inactive
5. Cc1noc(C)c1COc1cccc(C(=O)OC(C)C(=O)Nc2ccc3c(c2)OCO3)c1 (centres undefined); inactive

## Task Fill in: this test's call for "CCCN1C(=O)/C(=C\C=C2\N(CC)c3ccccc3C2(C)C)SC1=S" is ___
## Result active

## Task What do we get for "COCc1ccc(O)c2ncccc12" ?
## Result inactive

## Task Quick one: "COc1cc(/C=N\Nc2ccc([N+](=O)[O-])cc2)ccc1OCC(=O)Nc1ccc(C)c(C)c1"
## Result active

## Task Thanks! And O=S(=O)(Nc1nc2n(n1)C(c1ccccc1)C=C(c1ccc(Cl)cc1)N2)c1ccccc1 (centres undefined) ?
## Result active

## Task Now try "Cc1ccc(-c2cc(NC=O)c3ncc(-c4cnn(C)c4)n3c2)cc1" .
## Result inactive
